- Tested on: HL-60
- protocol-summary: Antiproliferative activity against human HL60 cells after 48 hrs by MTT assay
- Format: functional, cell-based
- cond: HL-60, 48 h
quantity-kind: pIC50
The quantity pIC50 is defined as the negative base-10 logarithm of the molar concentration.

Give the measured pIC50 of "O=c1oc2cc(O)ccc2cc1-c1ccc(O)c(O)c1" .
4.38

Okay, and "COc1cc2cc(-c3ccc(O)cc3)c(=O)oc2c(OC)c1O" ?
4.60

Okay, and "O=c1oc2cc(O)c(O)cc2cc1-c1ccccc1" ?
4.85

Okay, and "O=c1oc2cc(O)c(O)cc2cc1-c1ccc(O)cc1" ?
4.60

Okay, and "COc1cc(-c2cc3ccc(O)cc3oc2=O)ccc1O" ?
4.04

Okay, and "COc1cc2cc(-c3ccc(O)cc3)c(=O)oc2cc1O" ?
5.28

Okay, and "O=c1oc2cc(O)c(O)cc2cc1-c1ccc(O)c(O)c1" ?
4.66

Okay, and "COc1cc(-c2cc3cc(OC)c(O)cc3oc2=O)ccc1O" ?
4.61

Okay, and "O=c1oc2cc(O)ccc2cc1-c1cc(O)cc(O)c1" ?
3.90

Okay, and "COc1cc2cc(-c3cc(OC)c(OC)c(OC)c3)c(=O)oc2c(OC)c1O" ?
4.14

###

- Tested on: A549
- protocol-summary: Antiproliferative activity against human A549 cells after 72 hrs by MTT assay
- Type: functional, cell-based
- cond: A549, 72 h
quantity-kind: IC50 (µM)
Return type: number; implicit unit µM.

Give the measured IC50 of "COc1cc2cc(-c3ccc(O)cc3)c(=O)oc2c(OC)c1O" .
45.8

Okay, and "COc1cc(-c2cc3cc(OC)c(O)cc3oc2=O)ccc1O" ?
21.4

Okay, and "O=c1oc2cc(O)c(O)cc2cc1-c1ccc(O)cc1" ?
42.5

###

Assignment: determine reported pIC50 for the given molecules.
- Test system: A549
- protocol-summary: Antiproliferative activity against human A549 cells after 72 hrs by MTT assay
- Type: functional, cell-based
- cond: A549, 72 h
The quantity pIC50 is defined as the negative base-10 logarithm of the molar concentration.

Give the measured pIC50 of "Oc1ccc(/C=C/c2cc(O)cc(O)c2)cc1" .
3.92

Okay, and "O=c1oc2cc(O)c(O)cc2cc1-c1ccc(O)c(O)c1" ?
4.31

Okay, and "COc1cc(-c2cc3cc(O)c(O)cc3oc2=O)ccc1O" ?
4.36

Okay, and "O=c1oc2cc(O)c(O)cc2cc1-c1ccccc1" ?
4.57

Okay, and "COc1cc2cc(-c3ccc(O)cc3)c(=O)oc2cc1O" ?
5.12

Okay, and "O=c1oc2cc(O)ccc2cc1-c1ccc(O)c(O)c1" ?
4.07

###

- Test system: HL-60
- protocol-summary: Antiproliferative activity against human HL60 cells after 48 hrs by MTT assay
- Format: functional, cell-based
- cond: HL-60, 48 h
quantity-kind: IC50

Give the measured IC50 of "O=c1oc2cc(O)ccc2cc1-c1ccccc1" .
> 200 µM

Okay, and "O=c1oc2ccccc2cc1-c1ccc(O)cc1" ?
> 200 µM

Okay, and "O=c1oc2cc(O)ccc2cc1-c1ccc(O)cc1" ?
> 200 µM
